Entries and their IC50
target: CDK4/cyclin D1 (Homo sapiens (Human), UniProt P11802); experiment: CDK4/cyclin D1 enzymatic activity assay (TR-FRET, phosphorylation of pRb at Ser780); format: biochemical; settings: 0.3 nM CDK4/cyclin D1, 150 nM biotin-pRb (773-924), 3 μM ATP, 60 min at 22° C.; read-out: Biochemical CDK4 enzyme IC50
Sequence (P11802 whole entry): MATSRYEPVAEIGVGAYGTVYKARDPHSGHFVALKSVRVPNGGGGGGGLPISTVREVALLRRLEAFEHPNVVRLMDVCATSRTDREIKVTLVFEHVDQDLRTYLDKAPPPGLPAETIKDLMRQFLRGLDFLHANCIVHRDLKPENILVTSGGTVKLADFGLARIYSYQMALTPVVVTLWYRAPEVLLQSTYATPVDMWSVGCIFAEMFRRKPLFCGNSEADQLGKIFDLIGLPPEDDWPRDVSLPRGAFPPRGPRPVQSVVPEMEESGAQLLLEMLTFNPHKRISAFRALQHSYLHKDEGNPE
Sequence (P24385 whole entry partner): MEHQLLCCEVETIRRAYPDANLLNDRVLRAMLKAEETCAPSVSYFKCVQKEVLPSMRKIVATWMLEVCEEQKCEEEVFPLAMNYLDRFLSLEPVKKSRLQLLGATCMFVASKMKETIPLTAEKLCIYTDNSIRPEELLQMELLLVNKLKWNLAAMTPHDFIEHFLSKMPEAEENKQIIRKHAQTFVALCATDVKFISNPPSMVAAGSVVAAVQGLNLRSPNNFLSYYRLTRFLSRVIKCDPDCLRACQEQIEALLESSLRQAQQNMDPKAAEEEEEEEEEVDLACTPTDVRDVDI
Endpoint: IC50

compound="CN(C)C(=O)c1cc2cnc(Nc3ccc(N4C[C@H]5CNC[C@H]5CC4=O)cn3)nc2n1C1CCCC1 (stereo in doubt)" recorded_value="5 to 7 nM"
compound="CN(C)C(=O)c1cc2cnc(Nc3ccc(N4C[C@@H]5CNC[C@@H]5CC4=O)cn3)nc2n1C1CCCC1 (stereo in doubt)" recorded_value="5 to 7 nM"
compound=CN(C)C(=O)c1cc2cnc(Nc3ccc(C(=O)N4C[C@@H]5C[C@H]4C[C@@H]5O)cn3)nc2n1C1CCCC1 recorded_value="88 to 114 nM"
compound=CN(C)C(=O)c1cc2cnc(Nc3ccc(C(=O)N4[C@@H]5CC[C@H]4C[C@H](O)C5)cn3)nc2n1C1CCCC1 recorded_value="176 to 198 nM"
compound="CN(C)C(=O)c1cc2cnc(Nc3ccc(N4CC5(CC6CCC(C5)N6)OC4=O)cn3)nc2n1C1CCCCC1 (centres unmarked)" recorded_value="41 to 44 nM"

----------
Reported values of pIC50 for individual entries
Target: CDK4/cyclin D1 (Homo sapiens (Human), UniProt P11802)
Test: CDK4/cyclin D1 enzymatic activity assay (TR-FRET, phosphorylation of pRb at Ser780)
Format: biochemical
Details: 0.3 nM CDK4/cyclin D1, 150 nM biotin-pRb (773-924), 3 μM ATP, 60 min at 22° C.; read-out: Biochemical CDK4 enzyme IC50
Protocol: CDK4/Cyclin D1 Enzymatic Activity Assay An assay for monitoring CDK4/cyclin D1-catalyzed phosphorylation of pRb at the Ser780 site was performed using TR-FRET in a 384-well format, and was used for IC50 determination and kinetic analysis. […] 3 μM ATP was added last to initiate the reaction. The reaction was quenched with 10 μL of 240 mM EDTA-Na (pH 8.0) after 60 min incubation at 22° C. Human CDK4/cyclin D1 was expressed in Sf21 cells via baculovirus infection.
pIC50: −log10 of the molar value.
Endpoint: pIC50

molecule="CN(C)C(=O)c1cc2cnc(Nc3ccc(N4CCC5(CCCN5)C4=O)cn3)nc2n1C1CCCC1 (stereo not shown)" recorded_value="7.68 to 7.77"
molecule="CN(C)C(=O)c1cc2cnc(Nc3ccc(C(=O)N4CCC5CCC(C4)N5)cn3)nc2n1C1CCCC1 (racemic)" recorded_value="7.74 to 8.30"
molecule="CN(C)C(=O)c1cc2cnc(Nc3ccc(N4CC5CNCC5CC4=O)cn3)nc2n1C1CCCCCC1 (racemic)" recorded_value="> 8.30"
molecule="CN(C)C(=O)c1cc2cnc(Nc3ccc(N4CCN5CCCC5C4=O)cn3)nc2n1C1CCCCC1 (stereo not shown)" recorded_value="7.01 to 7.80"

----------
test system: phosphorylation of pRb at the Ser780 site in JeKo-1 mantle cell lymphoma cells; test: CDK4 cellular assay: ELISA of pRb phosphorylation at Ser780 in JeKo-1 cells; format: cell-based; conditions: Homo sapiens; JeKo-1 cells, p-pRb % inhibition adjusted with total pRb levels; read-out: Normalized cellular ppRb inhibition IC50
pIC50: −log10 of the molar value.
Endpoint: pIC50

compound="CN(C)C(=O)c1cc2cnc(Nc3ccc(N4CC5(CCCNCC5)OC4=O)cn3)nc2n1C1CCCC1 (stereo not drawn)" recorded_value="6.77 to 7.19"
compound="CN(C)C(=O)c1cc2cnc(Nc3ccc(N4CC5(CC4=O)CC4CCC(C5)N4)cn3)nc2n1C1CCCC1 (stereo not drawn)" recorded_value="6.82 to 7.33"
compound=CN(C)C(=O)c1cc2cnc(Nc3ccc(C(=O)N4CC5CCCC(C4)N5)cn3)nc2n1C1CCCC1 recorded_value="7.28 to 7.35"
